- tgt: CDK1-CYCLIN B (Homo sapiens)
- Sequence (P06493 whole entry): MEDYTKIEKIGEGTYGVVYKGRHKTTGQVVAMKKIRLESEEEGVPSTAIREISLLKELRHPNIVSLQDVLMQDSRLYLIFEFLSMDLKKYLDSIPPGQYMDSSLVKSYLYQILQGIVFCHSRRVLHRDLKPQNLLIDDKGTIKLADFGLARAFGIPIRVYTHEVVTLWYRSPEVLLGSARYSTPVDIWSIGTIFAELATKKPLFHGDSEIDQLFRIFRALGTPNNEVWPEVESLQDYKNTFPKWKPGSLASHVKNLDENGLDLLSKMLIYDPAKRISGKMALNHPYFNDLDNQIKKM
- Sequence (P14635 whole entry partner): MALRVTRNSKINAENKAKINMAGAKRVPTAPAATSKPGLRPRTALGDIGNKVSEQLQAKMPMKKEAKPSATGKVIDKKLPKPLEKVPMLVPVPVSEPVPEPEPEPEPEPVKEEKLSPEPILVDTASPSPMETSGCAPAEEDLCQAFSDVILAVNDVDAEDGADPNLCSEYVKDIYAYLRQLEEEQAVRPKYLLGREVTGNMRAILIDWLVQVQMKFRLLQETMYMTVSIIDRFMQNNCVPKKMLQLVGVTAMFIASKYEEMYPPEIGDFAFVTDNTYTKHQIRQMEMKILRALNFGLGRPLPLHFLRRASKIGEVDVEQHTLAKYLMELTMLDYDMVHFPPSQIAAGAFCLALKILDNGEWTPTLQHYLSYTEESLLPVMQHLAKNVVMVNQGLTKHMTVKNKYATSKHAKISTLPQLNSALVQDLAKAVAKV
- test.details: CDK protein kinase inhibition by ADP-Glo assay, CDK1-CYCLIN B
- Assay type: biochemical
- conditions.used: Table 37; recombinant CDK kinase; read-out: CDK1-CYCLINB, IC50
pIC50: −log10 of the molar value.
property: pIC50

O=C1NC2CC(COc3cc(ccn3)Nc3cc(n[nH]3)C3C[C@@H](F)[C@H](C3)O1)C2 [Compound 229] | 7.30 to 8.00
O=C1NC2CC(COc3cc(ccn3)Nc3cc(n[nH]3)C3C[C@H](F)[C@@H](C3)O1)C2 [Compound 230] | 7.30 to 8.00
O=C1NC2CC(COc3cc(ccn3)Nc3[nH]nc(c3F)C3C[C@@H](F)[C@H](C3)O1)C2 [Compound 231] | 7.00 to 7.30
O=C1NC2CC(COc3cc(ccn3)Nc3[nH]nc(c3F)C3C[C@H](F)[C@@H](C3)O1)C2 [Compound 232] | 6.30 to 7.00

Please look at the following molecule next.
Prompt line: In one line, give reported pIC50 of the entry C[C@H]1CC(F)(F)COc2cc(ccn2)Nc2[nH]nc(c2F)[C@H]2CC[C@H](C2)OC(=O)N1 [Compound 244] .
Response line: 6.30 to 7.00

###

pIC50 values by entry
- tgt: CDK2-CYCLIN E1 (Homo sapiens)
- test.details: CDK protein kinase inhibition by ADP-Glo assay, CDK2-CYCLIN E1
- Format: biochemical
- conditions.used: ADP-Glo, 1000 μM ATP; Table 19; read-out: CDK2-CYCLINE, IC50
pIC50: −log10 of the molar value.

C[C@H]1CC/C=C/c2cc(ccn2)Nc2cc(n[nH]2)[C@H]2CC[C@H](C2)OC(=O)N1 | ≥ 8.00
C[C@H]1CCCCc2cc(ccn2)Nc2cc(n[nH]2)[C@H]2CC[C@H](C2)OC(=O)N1 | ≥ 8.00
O=C1N[C@H]2C[C@H](CCc3cc(ccn3)Nc3cc(n[nH]3)[C@H]3CC[C@H](C3)O1)C2 | ≥ 8.00

Prompt line: In one line, give reported pIC50 of the entry C[C@@H]1CC/C=C/c2cc(ccn2)Nc2cc(n[nH]2)[C@H]2CC[C@H](C2)OC(=O)N1 .
Response line: 7.00 to 7.30

Prompt line: In one line, give reported pIC50 of the entry O=C1NCCCCC(F)(F)c2cc(ccn2)Nc2cc([nH]n2)[C@H]2CC[C@H](C2)O1 .
Response line: ≥ 8.00

Prompt line: In one line, give reported pIC50 of the entry C[C@@H]1CCC#Cc2cc(ccn2)Nc2cc(n[nH]2)[C@H]2CC[C@H](C2)OC(=O)N1 .
Response line: 7.30 to 8.00

Prompt line: In one line, give reported pIC50 of the entry C[C@@H]1CCCCc2cc(ccn2)Nc2cc(n[nH]2)[C@H]2CC[C@H](C2)OC(=O)N1 .
Response line: 7.30 to 8.00

###

pIC50 values by entry
- tgt: CDK2-CYCLIN E1 (Homo sapiens, UniProt P24941)
- test.details: CDK protein kinase inhibition by ADP-Glo assay, CDK2-CYCLIN E1
- Assay type: biochemical
- conditions.used: ADP-Glo, 1000 μM ATP; Table 23; read-out: CDK2-CYCLINE, IC50
pIC50: −log10 of the molar value.

Example results:
C[C@@H]1OCC[C@H](C)NC(=O)O[C@@H]2CC[C@@H](C2)c2cc([nH]n2)Nc2ccnc1c2 | ≥ 8.00
C[C@H]1CCO[C@H](C)c2cc(ccn2)Nc2cc(n[nH]2)[C@H]2CC[C@H](C2)OC(=O)N1 | 7.30 to 8.00
C[C@@H]1CC[C@H](C)Oc2cc(ccn2)Nc2cc(n[nH]2)[C@H]2CC[C@H](C2)OC(=O)N1 | ≥ 8.00

Prompt line: In one line, give reported pIC50 of the entry C[C@@H]1Oc2cncc(c2)Nc2cc(n[nH]2)[C@H]2CC[C@H](C2)OC(=O)N[C@H]2C[C@@H]1C2 .
Response line: 7.30 to 8.00

###

- tgt: UniProtKB P50750
- test.details: CDK protein kinase inhibition by ADP-Glo assay, CDK9-CYCLIN T1
- Format: biochemical
- conditions.used: Table 36; fold selectivity for CDK2 over CDK9, recombinant CDK kinases
property: CDK2 Fold selectivity against CDK9

O=C1N[C@H]2C[C@H](COc3cc(ccn3)Nc3cc(n[nH]3)[C@H]3CC[C@H](C3)O1)C2 [Compound 108] | D (D, >20 and ≤50)
C[C@H]1CCCOc2cc(ccn2)Nc2cc(n[nH]2)[C@H]2C[C@@H](F)[C@H](C2)OC(=O)N1 [Compound 224] | B (B, >100 and ≤500)
[2H]C1([2H])Oc2cc(ccn2)Nc2[nH]nc(c2F)[C@H]2CC[C@H](C2)OC(=O)N[C@H]2C[C@H]1C2 [Compound 221] | B (B, >100 and ≤500)
[2H]C1([2H])Oc2cc(ccn2)Nc2cc(n[nH]2)[C@H]2CC[C@H](C2)OC(=O)N[C@H]2C[C@H]1C2 [Compound 177] | D (D, >20 and ≤50)

###

IC50 values by entry
- Test system: Phospho-Rb (Ser807/811) in OVCAR3 cells
- test.details: Phospho-Rb expression inhibition in OVCAR3 cells quantified by In Cell Western
- Format: cell-based
- conditions.used: Homo sapiens, OVCAR-3, 24 hours, read-out: OVCAR-3 pRb IC50

Example results:
C[C@@H]1Oc2cncc(c2)Nc2cc(n[nH]2)[C@H]2CC[C@H](C2)OC(=O)N[C@H]2C[C@@H]1C2 [Compound 149] | 10 to 50 nM
C[C@@H]1NC(=O)O[C@@H]2CC[C@@H](C2)c2cc([nH]n2)Nc2cncc(c2)OCCC1(F)F [Compound 190] | 2 to 10 nM
O=C1NC2CC(CCc3cncc(c3)Nc3cc(n[nH]3)[C@H]3CC[C@H](C3)O1)C2 [Compound 141] | ≤ 2 nM
C[C@@H]1CCC2(CC2)NC(=O)O[C@@H]2CC[C@@H](C2)c2cc([nH]n2)Nc2ccnc(c2)O1 [compound 109] | 2 to 10 nM
O=C1N[C@H]2C[C@H](CCc3cc(ccn3)Nc3cc(n[nH]3)[C@H]3CC[C@H](C3)O1)C2 [compound 140] | 2 to 10 nM
O=C1NCCCOc2cc(ccn2)Nc2cc([nH]n2)[C@H]2CC[C@H](C2)O1 [Compound 2] | > 250 nM

Prompt line: In one line, give reported IC50 of the entry O=C1NC23CC(COc4cc(ccn4)Nc4cc([nH]n4)[C@H]4CC[C@H](C4)O1)(C2)C3 [Compound 18] .
Response line: 50 to 250 nM

Prompt line: In one line, give reported IC50 of the entry [2H]C1([2H])CC[C@H](C)NC(=O)O[C@@H]2CC[C@@H](C2)c2cc([nH]n2)Nc2cc(ncc2F)O1 [Compound 175] .
Response line: > 250 nM

Prompt line: In one line, give reported IC50 of the entry C[C@@H]1NC(=O)O[C@H]2C[C@H](C[C@H]2F)c2cc([nH]n2)Nc2ccnc(c2)OCCC1(F)F [Compound 226] .
Response line: 2 to 10 nM

Prompt line: In one line, give reported IC50 of the entry C[C@@H]1OCCCNC(=O)O[C@@H]2CC[C@@H](C2)c2cc([nH]n2)Nc2ccnc1c2 [compound 72] .
Response line: 10 to 50 nM

Prompt line: In one line, give reported IC50 of the entry C[C@@H]1OCC[C@H](C)NC(=O)O[C@@H]2CC[C@@H](C2)c2cc([nH]n2)Nc2ccnc1c2 [compound 159] .
Response line: 2 to 10 nM

Prompt line: In one line, give reported IC50 of the entry O=C1NCCCCOc2cc(ccn2)Nc2cc([nH]n2)[C@H]2CC[C@H](C2)O1 [Compound 1] .
Response line: 10 to 50 nM

Prompt line: In one line, give reported IC50 of the entry C[C@@H]1NC(=O)O[C@@H]2CC[C@@H](C2)c2cc([nH]n2)Nc2ccnc(c2)COCC1(F)F [compound 164] .
Response line: ≤ 2 nM

Prompt line: In one line, give reported IC50 of the entry C[C@@H]1NC(=O)O[C@@H]2CC[C@@H](C2)c2cc([nH]n2)Nc2ccnc(c2)OCCC1(F)F [Compound 181] .
Response line: 10 to 50 nM

Prompt line: In one line, give reported IC50 of the entry C[C@@H]1/C=C/COc2cc(ccn2)Nc2cc(n[nH]2)[C@H]2CC[C@H](C2)OC(=O)N1 [Compound 138] .
Response line: 10 to 50 nM

###

- tgt: CDK9-CYCLIN T1 (Homo sapiens, UniProt P50750)
- Sequence (P50750 whole entry): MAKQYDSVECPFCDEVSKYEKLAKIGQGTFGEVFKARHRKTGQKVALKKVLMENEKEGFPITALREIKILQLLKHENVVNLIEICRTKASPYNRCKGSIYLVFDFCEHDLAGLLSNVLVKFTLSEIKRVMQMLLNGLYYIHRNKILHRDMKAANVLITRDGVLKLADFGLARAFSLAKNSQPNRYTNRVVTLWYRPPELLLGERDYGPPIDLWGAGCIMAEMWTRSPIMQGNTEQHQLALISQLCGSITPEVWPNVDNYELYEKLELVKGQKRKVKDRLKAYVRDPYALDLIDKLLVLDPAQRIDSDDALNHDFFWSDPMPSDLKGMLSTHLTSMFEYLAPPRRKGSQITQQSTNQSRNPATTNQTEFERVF
- Sequence (O60563 whole entry partner): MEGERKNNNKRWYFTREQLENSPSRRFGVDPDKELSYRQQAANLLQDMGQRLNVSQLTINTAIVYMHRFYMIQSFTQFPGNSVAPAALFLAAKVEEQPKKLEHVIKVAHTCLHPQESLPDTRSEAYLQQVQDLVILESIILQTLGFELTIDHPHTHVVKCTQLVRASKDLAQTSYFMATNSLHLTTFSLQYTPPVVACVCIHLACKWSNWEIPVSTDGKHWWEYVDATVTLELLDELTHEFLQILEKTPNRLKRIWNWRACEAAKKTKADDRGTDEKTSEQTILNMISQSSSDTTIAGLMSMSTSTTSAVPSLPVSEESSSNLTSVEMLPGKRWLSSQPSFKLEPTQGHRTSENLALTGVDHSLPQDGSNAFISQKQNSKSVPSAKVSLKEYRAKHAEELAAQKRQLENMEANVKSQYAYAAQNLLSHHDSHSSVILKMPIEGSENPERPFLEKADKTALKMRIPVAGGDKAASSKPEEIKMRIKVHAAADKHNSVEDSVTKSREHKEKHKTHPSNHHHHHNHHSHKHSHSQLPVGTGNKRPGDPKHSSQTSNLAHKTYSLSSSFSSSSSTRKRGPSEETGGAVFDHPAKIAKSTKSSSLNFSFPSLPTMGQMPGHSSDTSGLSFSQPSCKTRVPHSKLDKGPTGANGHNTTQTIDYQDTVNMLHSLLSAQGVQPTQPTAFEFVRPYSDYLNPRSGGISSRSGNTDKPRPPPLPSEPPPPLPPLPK
- test.details: CDK protein kinase inhibition by ADP-Glo assay, CDK9-CYCLIN T1
- Type: biochemical
- conditions.used: Table 37; recombinant CDK kinase; read-out: CDK9-CYCLINT1, IC50
pIC50: −log10 of the molar value.
pIC50 values by entry

Example results:
O=C1NC2CC(COc3cc(ccn3)Nc3cc(n[nH]3)C3C[C@@H](F)[C@H](C3)O1)C2 [Compound 229] | 6.30 to 7.00
O=C1NC2CC(COc3cc(ccn3)Nc3[nH]nc(c3F)C3C[C@@H](F)[C@H](C3)O1)C2 [Compound 231] | < 6.30
C[C@H]1CC(F)(F)COc2cc(ccn2)Nc2[nH]nc(c2F)[C@H]2CC[C@H](C2)OC(=O)N1 [Compound 244] | < 6.30
O=C1NC2CC(COc3cc(ccn3)Nc3cc(n[nH]3)C3C[C@H](F)[C@@H](C3)O1)C2 [Compound 230] | 7.30 to 8.00

Please look at the following molecule next.
Prompt line: In one line, give reported pIC50 of the entry O=C1NC2CC(COc3cc(ccn3)Nc3[nH]nc(c3F)C3C[C@H](F)[C@@H](C3)O1)C2 [Compound 232] .
Response line: 6.30 to 7.00
